- Tested on: RPS6KA4(Kin.Dom.1-N-terminal);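 further: KINOMEscan kinase panel screen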
- test conditions: concentration: 1 μM, replicates: in singlicate; n = 1
Readings of %Inh for the listed molecules
// units = %; emit number, no label

Known results for molecules:
Request: For the molecule `COc1ccc(-c2coc3ccc(-c4nnc(SCc5ccc(OC)c(C(F)(F)F)c5)o4)cc23)cc1` , report %Inh.
Result: 9

Request: Specify measured %Inh for `CN(C)S(=O)(=O)c1cc(-c2ccc3nccc(-c4cccc(S(N)(=O)=O)c4)c3c2)cnc1N` .
Result: 15

Request: Consider the molecule `COc1cccc(C2=C(Nc3ccc(Cl)c(C(=O)O)c3)C(=O)NC2=O)c1` . State its measured %Inh.
Result: 17

Now for the molecule whose %Inh we want.
Request: Determine from records and report %Inh for `CCCCc1nn2ncccc2c1-c1ccnc(Nc2ccc(N3CCN(C)CC3)cc2)n1`
Result: 8
